molecular target: PCP receptor; experiment: [^3H]TCP binding to the PCP receptor (rat brain minus cerebellum homogenate); conditions: inhibition of [^3H]TCP (1 nM) specific binding, 30 min, 25° C., pH 7.7
REPORTED PROPERTY: IC50 (nM)
Numbers only here, please. The scale is nM.

Prompt: Using PCP receptor as the test system, report measured IC50 of `C[C@@H]1CCCC[C@]1(c1ccco1)N1CCCCC1` .
Completion: 5.5
